Tested on: 931267-113-T-J1-PDC KRAS spheroid with HUVEC/MSC, viability
method.notes: Anticancer human tumor 931267-113-T-J1-PDC patient-derived colon adenocarcinoma cell line growth inhibition [KRAS2]
experimental.conditions: second compound 1 µM; first compound 0.1 µM; stronger effect = lower value
assay.metric: viability, T/C

compound	endpoint.result
CCNC(=O)CC1N=C(c2ccc(Cl)cc2)c2cc(OC)ccc2-n2c(C)nnc21 (stereo not given) + C=CC(=O)N1CCN(c2nc(=O)n(-c3c(C)ccnc3C(C)C)c3nc(-c4c(O)cccc4F)c(F)cc23)C(C)C1	82.8%
CC1OCC2(CCN(c3cnc(Sc4ccnc(N)c4Cl)c(N)n3)CC2)C1N (stereo not given) + C=CC(=O)N1CCN(c2nc(OCC3CCCN3C)nc3c2CCN(c2cccc4cccc(C)c24)C3)CC1CC#N	65.9%
CCNC(=O)CC1N=C(c2ccc(Cl)cc2)c2cc(OC)ccc2-n2c(C)nnc21 (stereo not given) + CC1OCC2(CCN(c3cnc(Sc4ccnc(N)c4Cl)c(N)n3)CC2)C1N	68.5%
CC(=O)OC12COC1CC(O)C1(C)C(=O)C(O)C3=C(C)C(OC(=O)C(O)C(NC(=O)OC(C)(C)C)c4ccccc4)CC(O)(C(OC(=O)c4ccccc4)C21)C3(C)C (stereo not given) + CNCc1ccccc1-c1csc(C(C)Nc2nc(C)nc3cc(OC)c(OC)cc23)c1	91.3%
COc1cc2nccc(Oc3ccc(NC(=O)C4(C(=O)Nc5ccc(F)cc5)CC4)cc3)c2cc1OC + COc1cc2nc(C)nc(NC(C)c3cc(N)cc(C(F)(F)F)c3)c2cc1OC1CCOC1	107%

Item CN(C)C/C=C/C(=O)Nc1cc2c(Nc3ccc(F)c(Cl)c3)ncnc2cc1O[C@H]1CCOC1 + CNCc1ccccc1-c1csc(C(C)Nc2nc(C)nc3cc(OC)c(OC)cc23)c1 ; assay system 931267-113-T-J1-PDC KRAS spheroid with HUVEC/MSC, viability; viability, T/C reported as 1.43%

viability, T/C of Cn1nccc1Nc1nccc(-c2cc3c(s2)C(C)(C)N(CCN2CCOCC2)C3=O)n1 + C=CC(=O)N1CCN(c2nc(=O)n(-c3c(C)ccnc3C(C)C)c3nc(-c4c(O)cccc4F)c(F)cc23)C(C)C1 , assay on 931267-113-T-J1-PDC KRAS spheroid with HUVEC/MSC, viability, is 104%

Kindly note: 931267-113-T-J1-PDC KRAS spheroid with HUVEC/MSC, viability, CCN1CCN(Cc2ccc(Nc3ncc(F)c(-c4cc(F)c5nc(C)n(C(C)C)c5c4)n3)nc2)CC1 + CC1OCC2(CCN(c3cnc(Sc4ccnc(N)c4Cl)c(N)n3)CC2)C1N , viability, T/C value reported: 41.4%

* * *

Test system: 931267-113-T-J1-PDC KRAS spheroid with HUVEC/MSC, viability
method.notes: Anticancer human tumor 931267-113-T-J1-PDC cell line growth inhibition [KRAS2];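 note: compound exposure lasted 7 days before the readout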
experimental.conditions: curve of first compound; second compound 1 µM
assay.metric: IC50 (nM)
Number only, in nM; omit the unit.

The examples below pair each entry with its known result.
compound	assay.metric	endpoint.result
CC(=O)Nc1cccc(-n2c(=O)n(C3CC3)c(=O)c3c(Nc4ccc(I)cc4F)n(C)c(=O)c(C)c32)c1 + C=CC(=O)N1CCN(c2nc(=O)n(-c3c(C)ccnc3C(C)C)c3nc(-c4c(O)cccc4F)c(F)cc23)C(C)C1	IC50	11.3
COc1cc(Nc2ncc3c(n2)-c2ccc(Cl)cc2C(c2c(F)cccc2OC)=NC3)ccc1C(=O)O + CC1OCC2(CCN(c3cnc(Sc4ccnc(N)c4Cl)c(N)n3)CC2)C1N	IC50	848

Now consider the entry below.
// CC(C)n1nc(-c2ccc3oc(N)nc3c2)c2c(N)ncnc21 + C=CC(=O)N1CCN(c2nc(=O)n(-c3c(C)ccnc3C(C)C)c3nc(-c4c(O)cccc4F)c(F)cc23)C(C)C1 : IC50 value = 7.94

* * *

Tested on: 931267-113-T-J1-PDC KRAS spheroid with HUVEC/MSC, viability
method.notes: Anticancer human tumor 931267-113-T-J1-PDC cell line growth inhibition [KRAS2];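 note: compound exposure lasted 7 days before the readout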
experimental.conditions: curve of first compound; second compound 1 µM
assay.metric: pIC50
Lab note — pIC50 values are minus log10 of concentrations in M.

compound	endpoint.result
CCNC(=O)CC1N=C(c2ccc(Cl)cc2)c2cc(OC)ccc2-n2c(C)nnc21 (stereo not drawn) + CNCc1ccccc1-c1csc(C(C)Nc2nc(C)nc3cc(OC)c(OC)cc23)c1	6.77

Short answer for COc1cc2nccc(Oc3ccc(NC(=O)C4(C(=O)Nc5ccc(F)cc5)CC4)cc3)c2cc1OC + CC1OCC2(CCN(c3cnc(Sc4ccnc(N)c4Cl)c(N)n3)CC2)C1N : pIC50 was 5.51

* * *

Test system: 931267-113-T-J1-PDC KRAS spheroid with HUVEC/MSC, viability
method.notes: Anticancer human tumor 931267-113-T-J1-PDC cell line growth inhibition [KRAS2];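 note: compound exposure lasted 7 days before the readout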;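 for viability, T/C: 100% = DMSO vehicle control viability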
experimental.conditions: second compound 3.16 µM; first compound 0.0316 µM; stronger effect = lower value
assay.metric: viability, T/C (%)
Numeric only. Scale: %

Some solved cases for reference:
compound	tested.on	assay.metric	endpoint.result
Cn1nccc1Nc1nccc(-c2cc3c(s2)C(C)(C)N(CCN2CCOCC2)C3=O)n1 + C=CC(=O)N1CCN(c2nc(=O)n(-c3c(C)ccnc3C(C)C)c3nc(-c4c(O)cccc4F)c(F)cc23)C(C)C1	931267-113-T-J1-PDC KRAS spheroid with HUVEC/MSC, viability	viability, T/C	93.3
COC(=O)c1ccc2c(C(=Nc3ccc(N(C)C(=O)CN4CCN(C)CC4)cc3)c3ccccc3)c(O)[nH]c2c1 + CC1OCC2(CCN(c3cnc(Sc4ccnc(N)c4Cl)c(N)n3)CC2)C1N	931267-113-T-J1-PDC KRAS spheroid with HUVEC/MSC, viability	viability, T/C	48.1

Next compound, please.
Reported viability, T/C of CC(=O)Nc1cccc(-n2c(=O)n(C3CC3)c(=O)c3c(Nc4ccc(I)cc4F)n(C)c(=O)c(C)c32)c1 + COc1cc2nc(C)nc(NC(C)c3cc(N)cc(C(F)(F)F)c3)c2cc1OC1CCOC1 : 19.6

* * *

Test system: 931267-113-T-J1-PDC KRAS spheroid with HUVEC/MSC, viability
method.notes: Anticancer human tumor 931267-113-T-J1-PDC cell line growth inhibition [KRAS2];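 note: compound exposure lasted 7 days before the readout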;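 for viability, T/C: 100% = DMSO vehicle control viability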
experimental.conditions: second compound 10 µM; first compound 10 µM; stronger effect = lower value
Field 'label' (enum: True / False). Set to True when viability, T/C is strictly under 10%; else False.

These solved cases illustrate the format of a correct answer.
compound	cat
O=C(c1cc(Cc2n[nH]c(=O)c3ccccc23)ccc1F)N1CCN(C(=O)C2CC2)CC1 + COc1cc2nc(C)nc(NC(C)c3cc(N)cc(C(F)(F)F)c3)c2cc1OC1CCOC1	False
Cn1nccc1Nc1nccc(-c2cc3c(s2)C(C)(C)N(CCN2CCOCC2)C3=O)n1 + COc1cc2nc(C)nc(NC(C)c3cc(N)cc(C(F)(F)F)c3)c2cc1OC1CCOC1	True
COc1cc(Nc2ncc3c(n2)-c2ccc(Cl)cc2C(c2c(F)cccc2OC)=NC3)ccc1C(=O)O + CNCc1ccccc1-c1csc(C(C)Nc2nc(C)nc3cc(OC)c(OC)cc23)c1	True
Cn1nccc1Nc1nccc(-c2cc3c(s2)C(C)(C)N(CCN2CCOCC2)C3=O)n1 + C=CC(=O)N1CCN(c2nc(=O)n(-c3c(C)ccnc3C(C)C)c3nc(-c4c(O)cccc4F)c(F)cc23)C(C)C1	False

[in] Please indicate whether the reported viability, T/C of O=C(c1cc(Cc2n[nH]c(=O)c3ccccc23)ccc1F)N1CCN(C(=O)C2CC2)CC1 + C=CC(=O)N1CCN(c2nc(=O)n(-c3c(C)ccnc3C(C)C)c3nc(-c4c(O)cccc4F)c(F)cc23)C(C)C1 is strictly below 10%.
[out] False

* * *

System: 931267-113-T-J1-PDC KRAS spheroid with HUVEC/MSC, viability
method.notes: Anticancer human tumor 931267-113-T-J1-PDC cell line growth inhibition [KRAS2];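 note: compound exposure lasted 7 days before the readout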;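 for viability, T/C: 100% = DMSO vehicle control viability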
experimental.conditions: second compound 1 µM; first compound 0.1 µM; stronger effect = lower value
assay.metric: viability, T/C (%)
Answer format: numeric, % implied, no suffix.

Some molecules with known viability, T/C results, for comparison:
molecule	endpoint.result
CC1(C)CCC(CN2CCN(c3ccc(C(=O)NS(=O)(=O)c4ccc(NCC5CCOCC5)c([N+](=O)[O-])c4)c(Oc4cnc5[nH]ccc5c4)c3)CC2)=C(c2ccc(Cl)cc2)C1 + C=CC(=O)N1CCN(c2nc(OCC3CCCN3C)nc3c2CCN(c2cccc4cccc(C)c24)C3)CC1CC#N	84.3
CC(=O)OC12COC1CC(O)C1(C)C(=O)C(O)C3=C(C)C(OC(=O)C(O)C(NC(=O)OC(C)(C)C)c4ccccc4)CC(O)(C(OC(=O)c4ccccc4)C21)C3(C)C (stereo not given) + C=CC(=O)N1CCN(c2nc(OCC3CCCN3C)nc3c2CCN(c2cccc4cccc(C)c24)C3)CC1CC#N	77
CCN1CCN(Cc2ccc(Nc3ncc(F)c(-c4cc(F)c5nc(C)n(C(C)C)c5c4)n3)nc2)CC1 + COc1cc2nc(C)nc(NC(C)c3cc(N)cc(C(F)(F)F)c3)c2cc1OC1CCOC1	56.4

Value of viability, T/C reported for the molecule CC(C)n1nc(-c2ccc3oc(N)nc3c2)c2c(N)ncnc21 + C=CC(=O)N1CCN(c2nc(=O)n(-c3c(C)ccnc3C(C)C)c3nc(-c4c(O)cccc4F)c(F)cc23)C(C)C1 is 25.1

Kindly note the recorded viability, T/C for CCN1CCN(Cc2ccc(Nc3ncc(F)c(-c4cc(F)c5nc(C)n(C(C)C)c5c4)n3)nc2)CC1 + CNCc1ccccc1-c1csc(C(C)Nc2nc(C)nc3cc(OC)c(OC)cc23)c1 , which is 32.2

viability, T/C measured on CC1OCC2(CCN(c3cnc(Sc4ccnc(N)c4Cl)c(N)n3)CC2)C1N (stereo not given) + C=CC(=O)N1CCN(c2nc(=O)n(-c3c(C)ccnc3C(C)C)c3nc(-c4c(O)cccc4F)c(F)cc23)C(C)C1 = 87.8

The reported viability, T/C of the molecule CN(C)C/C=C/C(=O)Nc1cc2c(Nc3ccc(F)c(Cl)c3)ncnc2cc1O[C@H]1CCOC1 + C=CC(=O)N1CCN(c2nc(=O)n(-c3c(C)ccnc3C(C)C)c3nc(-c4c(O)cccc4F)c(F)cc23)C(C)C1 was 96.5

Lab note: measured viability, T/C of COc1cc2nccc(Oc3ccc(NC(=O)C4(C(=O)Nc5ccc(F)cc5)CC4)cc3)c2cc1OC + C=CC(=O)N1CCN(c2nc(OCC3CCCN3C)nc3c2CCN(c2cccc4cccc(C)c24)C3)CC1CC#N was 101

The recorded viability, T/C for entry CN(C)C/C=C/C(=O)Nc1cc2c(Nc3ccc(F)c(Cl)c3)ncnc2cc1O[C@H]1CCOC1 + COc1cc2nc(C)nc(NC(C)c3cc(N)cc(C(F)(F)F)c3)c2cc1OC1CCOC1 equals 94

Form field viability, T/C, entry O=C(c1cc(Cc2n[nH]c(=O)c3ccccc23)ccc1F)N1CCN(C(=O)C2CC2)CC1 + C=CC(=O)N1CCN(c2nc(OCC3CCCN3C)nc3c2CCN(c2cccc4cccc(C)c24)C3)CC1CC#N : 79.3
